- Measured On: Syk kinase (Homo sapiens)
- Construct: purchased
- Experimental Protocol: Syk kinase inhibition, Caliper LabChip off-chip mobility-shift kinase assay
- Type: biochemical
- Experimental Conditions: read-out: Syk Enzyme IC50
Property Label: IC50 (nM)

Answered cases to consult:
{"Molecular String": "CC[C@H](C)Nc1nc(Nc2cc(C)ccn2)cc2cc[nH]c(=O)c12", "IC50, nM": 443}
{"Molecular String": "CCNC(=O)Cn1ccc2cc(Nc3cnccn3)nc(NC(C)C)c2c1=O", "IC50, nM": 177}
{"Molecular String": "Nc1ncc(-c2cc3c(F)c[nH]c(=O)c3c(Nc3ccc(N4CCOCC4)cc3)n2)cn1", "IC50, nM": 108}

I: Nc1ncc(-c2cc3cc[nH]c(=O)c3c(NCC(F)(F)F)n2)cn1
II: COc1nc(-c2cc3cc[nH]c(=O)c3c(Nc3ccc(C4CCNCC4)c(C)c3)n2)cnc1N
Dear colleague, could you let me know whether I or II has the lower recorded IC50? Thanks. // return label of chosen record
II

----------
- Measured On: Syk kinase (Homo sapiens, UniProt P43405)
- Construct: purchased
- Experimental Protocol: Syk kinase inhibition, Caliper LabChip off-chip mobility-shift kinase assay
- Type: biochemical
- Experimental Conditions: read-out: Syk Enzyme IC50
pIC50: −log10 of the molar value.
Property Label: pIC50

{"Compound": "Cc1ccnc(Nc2cc3cc[nH]c(=O)c3c(NCCN(C)C)n2)c1 [compound 588]", "Measured On": "Syk kinase (Homo sapiens, UniProt P43405)", "pIC50": 5.71}
{"Compound": "COc1cncc(-c2cc3cc[nH]c(=O)c3c(Nc3ccc(N4CC5(CNC5)C4)cc3)n2)n1 [compound 5]", "Measured On": "Syk kinase (Homo sapiens, UniProt P43405)", "pIC50": 6.50}
{"Compound": "Cc1ccnc(Nc2cc3cc[nH]c(=O)c3c(N[C@@H](C)CO)n2)c1 [compound 294]", "Measured On": "Syk kinase (Homo sapiens, UniProt P43405)", "pIC50": 7.00}

A: COc1cncc(-c2cc3cc[nH]c(=O)c3c(Nc3ccc(CCN4CCNCC4)cc3)n2)n1 [compound 54]
B: Cc1ccc(Nc2cc3cc[nH]c(=O)c3c(Nc3ccc(CCN4CCCN(C)CC4)cc3)n2)nc1 [compound 552]
C: COCC(Cl)C(=O)N1CCC(c2ccc(Nc3nc(-c4cncc(OC)n4)cc4cc[nH]c(=O)c34)cc2C)CC1 (stereo not shown) [compound 90]
D: COc1cncc(-c2cc3cc[nH]c(=O)c3c(Nc3ccc(CCn4cncn4)cc3)n2)n1 [compound 24]
E: Cc1cc(Nc2nc(Nc3ccc(C(F)(F)F)cn3)cc3cc[nH]c(=O)c23)ccc1N1CCO[C@H](C)C1 [compound 583]
Exam item: list the entries in increasing order of pIC50. Give me the labels in the order the question wants.
E, B, C, D, A
(E: 5.07, B: 6.41, C: 6.69, D: 6.91, A: 7.19)

a: Nc1nccc(-c2cc3cc[nH]c(=O)c3c(Nc3ccc(N4CCOCC4)cc3)n2)n1 [compound 53]
b: CS(=O)(=O)c1ccc(Nc2nc(Nc3cnccn3)cc3ccn(CCO)c(=O)c23)cc1 [compound 405]
c: CCOCCOc1ccc(Nc2nc(Nc3cc(C)ccn3)cc3ccn(C)c(=O)c23)cc1 [compound 334]
Exam item: list the entries in increasing order of pIC50. Give me the labels in the order the question wants.
c, a, b
(c: 5.77, a: 6.31, b: 6.63)

----------
- Measured On: Syk kinase (Homo sapiens)
- Construct: purchased
- Experimental Protocol: Syk kinase inhibition, Caliper LabChip off-chip mobility-shift kinase assay
- Type: biochemical
- Experimental Conditions: Caliper LabChip assay; read-out: Syk Enzyme IC50
Property Label: IC50 (nM)

Answered cases to consult:
{"Compound": "CCCn1ccc2cc(-c3cnc(N)nc3)nc(NC(C)(C)C)c2c1=O [compound 914]", "Property Label": "IC50", "Endpoint Result": 108}
{"Compound": "CC(C)(C)Nc1nc(Nc2cc(-c3ccnc(N)n3)ccn2)cc2ccn(CCO)c(=O)c12 [compound 691]", "Property Label": "IC50", "Endpoint Result": 59}
{"Compound": "CC(C)(C)Nc1nc(Nc2cc(CN3CC(O)C3)c(F)cn2)cc2ccn(CCO)c(=O)c12 [compound 611]", "Property Label": "IC50", "Endpoint Result": 251}
{"Compound": "CCn1ccc2cc(Nc3cnccn3)nc(NC3CC=C(C)CC3)c2c1=O (centres unmarked) [compound 955]", "Property Label": "IC50", "Endpoint Result": 376}
{"Compound": "CC1(Nc2nc(Nc3cc(C4(O)COC4)ccn3)cc3ccn(CC(N)=O)c(=O)c23)CC1 [compound 617]", "Property Label": "IC50", "Endpoint Result": 64}

a: COc1ccc(Nc2cc3ccn(CCO)c(=O)c3c(NC(C)(C)C)n2)nc1 [Compound No. 606]
b: CCn1ccc2cc(Nc3cnccn3)nc(NC3(CO)CCC3)c2c1=O [compound 897]
Dear colleague, could you let me know whether a or b has the lower recorded IC50? Thanks. // return label of chosen record
b

----------
- Measured On: Syk kinase (Homo sapiens, UniProt P43405)
- Construct: purchased
- Experimental Protocol: Syk kinase inhibition, Caliper LabChip off-chip mobility-shift kinase assay
- Type: biochemical
- Experimental Conditions: Caliper LabChip assay; read-out: Syk Enzyme IC50
Property Label: IC50 (nM)

{"Compound": "O=c1[nH]ccc2cc(NC3CCC(O)CC3)nc(Nc3ccc(N4CCOCC4)cc3)c12 (centres unmarked)", "Measured On": "Syk kinase (Homo sapiens, UniProt P43405)", "Result Unit": "nM", "IC50": 152}
{"Compound": "NC(=O)Cn1ccc2cc(Nc3cnccn3)nc(N[C@H]3C[C@@H](CO)C3)c2c1=O", "Measured On": "Syk kinase (Homo sapiens, UniProt P43405)", "Result Unit": "nM", "IC50": 17}
{"Compound": "CC(C)(C)Nc1nc(Nc2cc(CCCCO)ncn2)cc2ccn(CCO)c(=O)c12", "Measured On": "Syk kinase (Homo sapiens, UniProt P43405)", "Result Unit": "nM", "IC50": 62}
{"Compound": "CCn1ccc2cc(Nc3cc(C)ccn3)nc(Nc3ccc(C(=O)N4CCC(O)C4)cc3)c2c1=O (centres unmarked)", "Measured On": "Syk kinase (Homo sapiens, UniProt P43405)", "Result Unit": "nM", "IC50": 119}
{"Compound": "COCCCN(C)S(=O)(=O)c1ccc(Nc2nc(Nc3cc(C)ccn3)cc3ccn(C)c(=O)c23)cc1", "Measured On": "Syk kinase (Homo sapiens, UniProt P43405)", "Result Unit": "nM", "IC50": 2410}

P: CC(O)c1ccnc(Nc2cc3ccn(CCO)c(=O)c3c(NC(C)(C)C)n2)n1 (centres unmarked)
Q: CCc1cc(Nc2cc3ccn(CCO)c(=O)c3c(NC(C)(C)C)n2)ncn1
Two entries are listed, P and Q . Which one carries the higher IC50? // return label of chosen record
P
(P: 679 nM, Q: 102 nM)

A: CCn1ccc2cc(Nc3nccc(O)n3)nc(N[C@@H]3CC[C@H](O)C3)c2c1=O
B: CC(C)(C)Nc1nc(-c2cnc(N)nc2)cc2cc[nH]c(=O)c12
C: CC(C)(C)Nc1nc(-c2cnc(N)nc2)cc2ccn(CC(O)CO)c(=O)c12 (centres unmarked)
Parameters: sort_field (IC50), sort_dir (desc). Give me the labels in the order the question wants.
A, C, B

a: CC(C)n1ccc2cc(Nc3cnccn3)nc(N[C@H]3CC[C@@H](O)C3)c2c1=O
b: CCn1ccc2cc(Nc3cnccn3)nc(N[C@@H]3CCC[C@@H]3CO)c2c1=O
Dear colleague, could you let me know whether a or b has the lower recorded IC50? Thanks. // return label of chosen record
a

A: CC1(Cn2ccc3cc(-c4cnc(N)nc4)nc(NC(C)(C)C)c3c2=O)COC1
B: CC(C)n1ccc2cc(-c3cnc(N)nc3)nc(N[C@H]3CC[C@@H](O)CC3)c2c1=O
Two entries are listed, A and B . Which one carries the higher IC50? // return label of chosen record
B

a: CCn1ccc2cc(Nc3cnccn3)nc(N[C@H]3CC[C@H](O)C3)c2c1=O
b: O=c1[nH]ccc2cc(Nc3cnccn3)nc(N[C@H]3CC[C@H](O)CC3)c12
Two entries are listed, a and b . Which one carries the higher IC50? // return label of chosen record
a
(a: 17 nM, b: 5 nM)

----------
- Measured On: Syk kinase (Homo sapiens)
- Construct: purchased
- Experimental Protocol: Syk kinase inhibition, Caliper LabChip off-chip mobility-shift kinase assay
- Type: biochemical
- Experimental Conditions: Caliper LabChip assay; read-out: Syk Enzyme IC50
Property Label: IC50 (nM)

Answered cases to consult:
{"Compound": "[2H]C([2H])([2H])n1ccc2cc(Nc3cnccn3)nc(NC3CC3)c2c1=O [compound 824]", "IC50 [nM]": 18}
{"Compound": "CCn1ccc2cc(Nc3cc(C(C)(C)O)ccn3)nc(NC3(CO)CCC3)c2c1=O [compound 703]", "IC50 [nM]": 85}
{"Compound": "C[C@@H](CO)Oc1cc(Nc2cc3ccn(C[C@H](O)CO)c(=O)c3c(NC(C)(C)C)n2)ncn1 [compound 643]", "IC50 [nM]": 9}
{"Compound": "CC(C)(C)Nc1nc(Nc2cc(CO)ccn2)cc2ccn(CCO)c(=O)c12 [compound 693]", "IC50 [nM]": 42}
{"Compound": "CC(C)(C)Nc1nc(Nc2cc(C3=CCCCC3)ncn2)cc2ccn(CCO)c(=O)c12 [compound 623]", "IC50 [nM]": 612}

A: Nc1ncc(-c2cc3ccn(C[C@H](O)CO)c(=O)c3c(NC3CCCC3)n2)cn1 [compound 776]
B: CCn1ccc2cc(Nc3cnccn3)nc(Nc3ccc(C(=O)N4CCC(O)CC4)cc3)c2c1=O [compound 832]
Dear colleague, could you let me know whether A or B has the lower recorded IC50? Thanks. // return label of chosen record
A

A: Nc1ncc(-c2cc3ccn(CC4(CO)COC4)c(=O)c3c(NC3CCCC3)n2)cn1 [compound 761]
B: Cn1ccc2cc(Nc3nccc(O)n3)nc(N[C@H]3CC[C@H](O)CC3)c2c1=O [compound 799]
C: CCn1ccc2cc(-c3cnc(N)nc3)nc(NC(C)(C)CO)c2c1=O [compound 904]
D: CC(C)(C)Nc1nc(Nc2cnccn2)cc2c(Cl)cn(CCO)c(=O)c12 [compound 823]
E: CC(C)(C)Nc1nc(Nc2cc(-c3cnn(CC(N)=O)c3)ccn2)cc2ccn(CCO)c(=O)c12 [compound 849]
Parameters: sort_field (IC50), sort_dir (desc). Give me the labels in the order the question wants.
D, E, A, B, C
(D: 682 nM, E: 102 nM, A: 66 nM, B: 29 nM, C: 4 nM)

a: CC(C)(C)Nc1nc(Nc2cc(CN)ccn2)cc2ccn(CCO)c(=O)c12 [compound 707]
b: CCn1ccc2cc(Nc3cc(C)ccn3)nc(NC3CCC(C)(O)CC3)c2c1=O (stereo not drawn) [compound 951]
Dear colleague, could you let me know whether a or b has the lower recorded IC50? Thanks. // return label of chosen record
a

1: CCC(O)(CC)c1ccnc(Nc2cc3ccn(CCO)c(=O)c3c(NC(C)(C)C)n2)c1 [compound 708]
2: CC(C)n1ccc2cc(Nc3cnccn3)nc(N[C@H]3CCC[C@H]3O)c2c1=O [compound 980]
3: CCn1ccc2cc(Nc3cc(C)ccn3)nc(N[C@@H]3CCC[C@@H]3CO)c2c1=O [compound 941]
4: CC(C)(C)CNc1nc(-c2cnc(N)nc2)cc2ccn(CCO)c(=O)c12 [compound 911]
Parameters: sort_field (IC50), sort_dir (desc). Give me the labels in the order the question wants.
1, 3, 4, 2

a: C/C(=N\OCCN(C)C)c1ccnc(Nc2cc3ccn(CCO)c(=O)c3c(NC(C)(C)C)n2)c1 [compound 686]
b: COCCCc1cc(Nc2cc3ccn(CCO)c(=O)c3c(NC(C)(C)C)n2)ncn1 [compound 622]
c: CC(O)c1ccnc(Nc2cc3ccn(CCO)c(=O)c3c(NC3(C)CCC3)n2)c1 (stereo not drawn) [compound 718]
Exam item: list the entries in increasing order of IC50. Give me the labels in the order the question wants.
c, b, a

1: [2H]C([2H])([2H])n1ccc2cc(-c3cnc(N)nc3)nc(N[C@H]3CC[C@@H](O)CC3)c2c1=O [compound 1026]
2: CC(C)(C)Nc1nc(Nc2cc(-c3cccnc3)ccn2)cc2ccn(CCO)c(=O)c12 [compound 828]
3: CC(C)(C)Nc1nc(Nc2cnccn2)cc2ccn(CC(O)CO)c(=O)c12 (stereo not drawn) [compound 664]
Parameters: sort_field (IC50), sort_dir (desc). Give me the labels in the order the question wants.
2, 1, 3

P: N#CCn1ccc2cc(Nc3cnccn3)nc(NC3CCCC3)c2c1=O [compound 753]
Q: O=c1c2c(N[C@H]3CC[C@@H](O)CC3)nc(Nc3cnccn3)cc2ccn1Cc1ccncc1 [compound 1024]
Dear colleague, could you let me know whether P or Q has the lower recorded IC50? Thanks. // return label of chosen record
P

a: CC(C)(C)Nc1nc(-c2cnc(N)nc2)cc2c(Cl)cn(CCO)c(=O)c12 [compound 666]
b: CC(C)(O)COc1cc(Nc2cc3ccn(CCO)c(=O)c3c(NC(C)(C)C)n2)ncn1 [compound 641]
c: CCn1ccc2cc(Nc3cc(C)ccn3)nc(NC(C)(C)CCO)c2c1=O [compound 782]
Exam item: list the entries in increasing order of IC50. Give me the labels in the order the question wants.
a, b, c
